Reference source: patent US12384786B2

# Test system: TMD8 cells (Human diffuse large B lymphoma cells)
# Assay protocol: CellTiter-Glo TMD8 inhibitory activity
# Type: cell-based
# Condition notes: cultured in vitro
Quantity measured: IC50 (nM)

A selection of reference data follows.
Nc1ncnc2c1c(-c1ccc(Oc3ccccc3F)cc1)nn2[C@@H]1CCC[C@@H](O)C1 :: 33
Nc1ncnc2c1c(-c1ccc(Oc3ccccc3)cc1)nn2[C@H]1CC[C@@H](O)CC1 :: 90

a. Nc1ncnc2c1c(-c1ccc(Oc3ccccc3)cc1)nn2C1CCC(O)C1 (stereo not shown)
b. COc1cccc(Oc2ccc(-c3nn(C4CCC(O)C4)c4ncnc(N)c34)cc2)c1F (stereo not shown)
When the recorded IC50 values are compared, which is smaller: that of a or that of b ? Mark your answer with the label of the selected entry. b
(b: 8 nM, a: 29 nM)
